Assay: Cytotoxicity in BHK cells assessed as reduction in cell viability incubated for 72 hrs by cell count reagent SF based microplate spectrophotometry
Settings: cricetinae
ASSAY_READOUT: CC50 at 72 h (µM)
Field: numeric (µM). Do not append units.

C#Cc1c(C#N)ncn1[C@@H]1O[C@H](CO)[C@@H](O)[C@H]1O : 3.99
C#Cc1c(C(N)=O)ncn1[C@@H]1O[C@H](CO)[C@@H](O)[C@H]1O : 1.24

stdin: Which value of CC50 at 72 h has been reported for NC(=O)c1ncn([C@@H]2O[C@H](CO)[C@@H](O)[C@H]2O)n1 in the records?
stdout: 49

----------
Reported selectivity ratio values for the following compounds.
Test: Selectivity index, ratio of CC50 for cytotoxicity in BHK cells to IC50 for antiviral activity against Dengue virus 1 DGL2 replicon infected in BHK cells
Type: toxicity, cell-based
Details: hamster, read-out: Ratio CC50/IC50
Please state the value as a number alone, without comment.

stdin: Look up selectivity ratio for this compound: C#Cc1c(C(N)=O)ncn1[C@@H]1O[C@H](CO)[C@@H](O)[C@H]1O
stdout: 4.59

stdin: Recorded selectivity ratio for NC(=O)c1ncn([C@@H]2O[C@H](CO)[C@@H](O)[C@H]2O)n1 [RIBAVIRIN] , please?
stdout: 7.35

stdin: Endpoint output: selectivity ratio of C#Cc1c(C#N)ncn1[C@@H]1O[C@H](CO)[C@@H](O)[C@H]1O . Value?
stdout: 7.25

----------
Assay: Selectivity index, ratio of CC50 for cytotoxicity in BHK cells to IC50 for antiviral activity against Dengue virus 1 DGL2 replicon infected in BHK cells
Format: toxicity, cell-based
Conditions: hamster, read-out: Ratio CC50/IC50
ASSAY_READOUT: selectivity ratio

# annotated cases, reported selectivity ratio shown
C#Cc1c(C#N)ncn1[C@@H]1S[C@H](CO)[C@@H](O)[C@H]1O : > 7.61
C#Cc1c(C(N)=O)ncn1[C@@H]1S[C@H](CO)[C@@H](O)[C@H]1O : > 3.42

Field: next compound
stdin: For C#Cc1c(C#N)ncn1[C@@H]1[Se][C@H](CO)[C@@H](O)[C@H]1O , what is its reported selectivity ratio?
stdout: > 2.24
